These measurements were taken from patent US20090099160A1.

# ASSAY_OVERVIEW: High Throughput Blood Level Assay - Rat
# Assay type: in vivo
# TEST_CONDITIONS: male, Alderley Park (AP), Wistar derived, Alpk..APfSD, plasma, oral cocktail dosing, normalised to a 1 mg/kg dose
PARAMETER_MEASURED: AUC (µM·h)
Form entry: value (µM·h) — number only.

Exercise: Looking for the measured AUC of Cc1ncc(-c2nc(Nc3ccc(C(=O)NC4CC4)c(F)c3)ncc2F)n1C(C)C [Example 25] , can you help?
Solution: 0.83

* * *

# TARGET: CDK2/Cyclin E (Homo sapiens, UniProt P24941)
# Construct: made in house; host or cells: Sf21 insect cells (baculovirus co-infection, pVL1393); the GST-Rb substrate was made in E. coli BL21 (DE3) pLysS
# ASSAY_OVERVIEW: CDK2/Cyclin E in vitro kinase assay (Scintillation Proximity Assay, GST-Rb substrate)
# Format: biochemical
# TEST_CONDITIONS: read-out: CDK2 inhibitory activity IC50
PARAMETER_MEASURED: pIC50
Keep in mind that pIC50 stands for -log10 of concentration in molar terms.

Exercise: Need pIC50 of CNC(=O)c1ccc(Nc2ncc(F)c(-c3cnc(C)n3C(C)C)n2)cc1C [Example 28] , thanks.
Solution: 8.52
